target: human EDG8 (S1PR5) receptor (Homo sapiens); construct: carries the transgenes human EDG8 (S1PR5) receptor (Acession number NP_110387.1); experiment: Aequorin assay, agonist potency, CHO-A21-EDG8#12 cells; details: agonist mode, aequorin luminescence; read-out: S1P5 EC50 range #
pEC50: −log10 of the molar value.
metric: pEC50

// known answers, use as guide
                                   compound  metric  valueobserved
0  O=C(O)CN1CC2(Cc3ccc(OCCc4ccccc4)cc3C2)C1   pEC50   5.00 to 6.00
1  CCOc1ccc(C#Cc2ccc3c(c2)CC2(C3)CN(CC3(C(=O)O)CC3)C2)cc1 [Example 112]   pEC50   6.00 to 7.00
2  O=C(O)CN1CC2(Cc3ccc(OCc4ccc(Cl)c(Cl)c4)cc3C2)C1   pEC50   7.00 to 8.00
3  CC(C)Oc1ccc(C#Cc2ccc3c(c2)CC2(C3)CN(C3CC(C(=O)O)C3)C2)cn1 (centres unmarked)   pEC50   7.00 to 8.00
4  O=C(O)C1(CN2CC3(Cc4ccc(-c5ccc(OCc6cccc(F)c6)cc5)cc4C3)C2)CC1   pEC50         ≥ 8.00
5  O=C(O)C1(CN2CC3(Cc4ccc(-c5ccc(OCc6cccc(Cl)c6)cc5)cc4C3)C2)CC1   pEC50   7.00 to 8.00
6  CCOc1ccc(C#Cc2ccc3c(c2)OC2(C3)CN(CC(=O)O)C2)cc1   pEC50   7.00 to 8.00

pEC50 measured on CC1CCC(C#Cc2ccc3c(c2)CC2(C3)CN(C3CC(C(=O)O)C3)C2)CC1 (centres unmarked) = ≥ 8.00

###

biological target: human EDG8 (S1PR5) receptor (Homo sapiens, UniProt Q9H228); construct: carries the transgenes human EDG8 (S1PR5) receptor (Acession number NP_110387.1); assay: Aequorin assay, agonist potency, CHO-A21-EDG8#12 cells; conditions: agonist mode, aequorin luminescence; read-out: S1P5 EC50 range #
Sequence (Q9H228 whole entry): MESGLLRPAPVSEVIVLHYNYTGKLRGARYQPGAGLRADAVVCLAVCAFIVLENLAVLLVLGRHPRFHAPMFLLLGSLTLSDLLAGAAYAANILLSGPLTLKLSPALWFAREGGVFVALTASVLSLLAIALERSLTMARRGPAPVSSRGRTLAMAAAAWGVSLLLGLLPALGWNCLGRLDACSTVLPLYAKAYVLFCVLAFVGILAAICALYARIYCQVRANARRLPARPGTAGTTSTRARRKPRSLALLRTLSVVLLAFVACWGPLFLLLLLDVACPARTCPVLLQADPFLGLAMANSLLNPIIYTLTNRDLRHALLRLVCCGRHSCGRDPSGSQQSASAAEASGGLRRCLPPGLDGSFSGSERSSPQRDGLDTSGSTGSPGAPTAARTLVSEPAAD
pEC50: −log10 of the molar value.
metric: pEC50

// known answers, use as guide
>>> df
                                   molecule  valueobserved
0  O=C(O)C1(CN2CC3(Cc4ccc(OCc5cc(Cl)cnc5Cl)cc4C3)C2)CC1   5.00 to 6.00
1  COc1ccc(C#Cc2ccc3c(c2)CC2(C3)CN(C3CC(C(=O)O)C3)C2)c(C)c1 (stereo not shown)   5.00 to 6.00
2  CCOc1cc(F)c(COc2ccc3c(c2)CC2(C3)CN(C3CC(C(=O)O)C3)C2)c(F)c1 (stereo not shown)   5.00 to 6.00
3  COc1ccc(C#Cc2ccc3c(c2)CC2(C3)CN(CC3(C(=O)O)CC3)C2)c(C)c1   5.00 to 6.00
4  O=C(O)C1CC(N2CC3(Cc4ccc(C#Cc5ccc(OCC6CC6)nc5)cc4C3)C2)C1 (stereo not shown)   6.00 to 7.00

pEC50 measured on `O=C(O)C1(CN2CC3(Cc4ccc(OCc5c(F)cccc5Cl)cc4C3)C2)CC1` = 5.00 to 6.00

pEC50 measured on `CCOc1ccc(COc2ccc3c(c2)CC2(C3)CN(CC3(C(=O)O)CC3)C2)c(F)c1F` = 5.00 to 6.00

pEC50 measured on `O=C(O)C1(CN2CC3(Cc4ccc(OCc5cccc6c5CCC6)cc4C3)C2)CC1` = 7.00 to 8.00

pEC50 measured on `O=C(O)CN1CC2(Cc3ccc(C#Cc4ccccc4)cc3O2)C1` = ≥ 8.00

pEC50 measured on `O=C(O)CN1CC2(Cc3ccc(OCCOc4ccc(Cl)cc4)cc3C2)C1` = 5.00 to 6.00

pEC50 measured on `CC(C)Oc1ccc(C#Cc2ccc3c(c2)CC2(C3)CN(CC3(C(=O)O)CC3)C2)cn1` = 6.00 to 7.00

pEC50 measured on `O=C(O)C1(CN2CC3(Cc4ccc(OCc5cccc(Cl)c5)cc4C3)C2)CC1` = 7.00 to 8.00

pEC50 measured on `O=C(O)C1(CN2CC3(Cc4ccc(OCc5c(F)cccc5C(F)(F)F)cc4C3)C2)CC1` = ≥ 8.00

pEC50 measured on `O=C(O)C1(CN2CC3(Cc4ccc(OCCc5ccccc5C(F)(F)F)cc4C3)C2)CC1` = 7.00 to 8.00

pEC50 measured on `N#Cc1cccc(COc2ccc3c(c2)CC2(C3)CN(CC3(C(=O)O)CC3)C2)c1` = 6.00 to 7.00

pEC50 measured on `CCOc1cc(F)c(COc2ccc3c(c2)CC2(C3)CN(CC3(C(=O)O)CC3)C2)c(F)c1` = 5.00 to 6.00

pEC50 measured on `O=C(O)CN1CC2(Cc3ccc(C#Cc4cccc(Cl)c4)cc3O2)C1` = ≥ 8.00

pEC50 measured on `O=C(O)CN1CC2(Cc3ccc(OCc4cc(F)cc(F)c4)cc3C2)C1` = 7.00 to 8.00

pEC50 measured on `O=C(O)C1(CN2CC3(Cc4ccc(-c5ccc(OCC6CCCCC6)cc5)cc4C3)C2)CC1` = 7.00 to 8.00

pEC50 measured on `CCc1cccc(F)c1COc1ccc2c(c1)CC1(C2)CN(CC2(C(=O)O)CC2)C1` = ≥ 8.00

###

Items are presented alongside their recorded EC50.
Molecular target: S1P4 (Homo sapiens)
Sequence (O95977 1-384): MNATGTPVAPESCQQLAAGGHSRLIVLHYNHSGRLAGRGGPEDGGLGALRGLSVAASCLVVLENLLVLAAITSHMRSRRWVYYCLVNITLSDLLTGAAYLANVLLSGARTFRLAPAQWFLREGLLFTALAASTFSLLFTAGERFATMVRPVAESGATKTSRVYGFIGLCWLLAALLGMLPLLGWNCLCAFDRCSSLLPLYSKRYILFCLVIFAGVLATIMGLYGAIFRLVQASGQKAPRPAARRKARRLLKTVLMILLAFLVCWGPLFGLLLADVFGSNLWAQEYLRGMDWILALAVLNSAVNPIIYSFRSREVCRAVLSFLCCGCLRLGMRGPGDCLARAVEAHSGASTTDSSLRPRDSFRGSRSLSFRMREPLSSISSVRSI
Assay: Aequorin assay, agonist potency, S1P4
Assay type: cell-based
Conditions: agonist mode, aequorin luminescence

>>> print(df.to_string())
                                   compound        assayedsystem  metric  valueobserved
0  COc1cccc(Cl)c1COc1ccc2c(c1)CC1(C2)CN(CC2(C(=O)O)CC2)C1 [Example 31]  S1P4 (Homo sapiens)    EC50      < 1000 nM
1  CCc1ccc(COc2ccc3c(c2)CC2(C3)CN(CC(=O)O)C2)c(Cl)c1 [Example 4]  S1P4 (Homo sapiens)    EC50      < 1000 nM
2  O=C(O)CN1CC2(Cc3ccc(OCc4c(F)cccc4C(F)(F)F)cc3C2)C1 [Example 19]  S1P4 (Homo sapiens)    EC50      < 1000 nM
3  O=C(O)CN1CC2(Cc3ccc(OCCc4ccccc4C(F)(F)F)cc3C2)C1 [Example 62]  S1P4 (Homo sapiens)    EC50      < 1000 nM
4  CC1CCC(C#Cc2ccc3c(c2)OC2(C3)CN(CC(=O)O)C2)CC1 (centres unmarked) [Example 155]  S1P4 (Homo sapiens)    EC50      < 1000 nM
5  O=C(O)CN1CC2(Cc3ccc(OCCc4c(Cl)cccc4Cl)cc3C2)C1 [Example 63]  S1P4 (Homo sapiens)    EC50      < 1000 nM

Summary: O=C(O)C1(CN2CC3(Cc4ccc(-c5ccc(OCc6cccc(F)c6)cc5)cc4C3)C2)CC1 [Example 50] , S1P4 (Homo sapiens), EC50 = < 1000 nM

Summary: O=C(O)C1(CN2CC3(Cc4ccc(OCCc5c[nH]c6ccccc56)cc4C3)C2)CC1 [Example 144] , S1P4 (Homo sapiens), EC50 = > 1000 nM

###

Items are presented alongside their recorded EC50.
Target: S1P4 (Homo sapiens, UniProt O95977)
Experiment: Aequorin assay, agonist potency, S1P4
Details: agonist mode, aequorin luminescence
Protocol: Agonistic activity was measured as described below. 18 hours prior to the test, vials of frozen cells are quickly thawed in a 37° C. water bath, cells are recovered by centrifugation and resuspended in assay buffer (DMEM/HAM's F12 with HEPES, without phenol red+0.1% fatty acid-free BSA). […] Cells are then placed in the luminescence reader (Hamamatsu Functional Drug Screening System 6000, FDSS6000). […] The resulting emission of light is recorded for 90 seconds using the FDSS6000. […]

// known answers, use as guide
                                   compound                        assayedsystem  valueobserved
0  COc1cccc(F)c1COc1ccc2c(c1)CC1(C2)CN(CC(=O)O)C1  S1P4 (Homo sapiens, UniProt O95977)      < 1000 nM
1  O=C(O)CN1CC2(Cc3ccc(OCc4c(F)cccc4C4CC4)cc3C2)C1  S1P4 (Homo sapiens, UniProt O95977)      < 1000 nM
2  O=C(O)C1CC(N2CC3(Cc4ccc(OCC5CCCOC5)cc4C3)C2)C1 (stereo not shown)  S1P4 (Homo sapiens, UniProt O95977)      > 1000 nM

EC50 measured on O=C(O)CN1CC2(Cc3ccc(OC4CCc5cccc(Cl)c54)cc3C2)C1 (stereo not shown) = < 1000 nM

EC50 measured on `O=C(O)C1(CN2CC3(Cc4ccc(OCc5c(Cl)cccc5C(F)(F)F)cc4C3)C2)CC1` = < 1000 nM

EC50 measured on `O=C(O)C1(CN2CC3(Cc4ccc(OCc5ccc6c(c5)OCO6)cc4C3)C2)CC1` = < 1000 nM

EC50 measured on `CCOc1ccc(COc2ccc3c(c2)CC2(C3)CN(CC3(C(=O)O)CC3)C2)c(Cl)c1` = < 1000 nM

EC50 measured on `CCOc1ccc(COc2ccc3c(c2)CC2(C3)CN(CC3(C(=O)O)CC3)C2)cc1` = < 1000 nM

EC50 measured on `COc1ccc(COc2ccc3c(c2)CC2(C3)CN(CC3(C(=O)O)CC3)C2)cc1` = > 1000 nM

EC50 measured on `O=C(O)C1(CN2CC3(Cc4ccc(OCCc5ccccc5C(F)(F)F)cc4C3)C2)CC1` = < 1000 nM

EC50 measured on `O=C(O)C1(CN2CC3(Cc4ccc(OCCc5ccc(F)cc5)cc4C3)C2)CC1` = < 1000 nM

EC50 measured on `CCOc1ccc(C#Cc2ccc3c(c2)OC2(C3)CN(CC(=O)O)C2)cc1` = > 1000 nM

EC50 measured on O=C(O)C1CC(N2CC3(Cc4ccc(OC5CCc6cccc(Cl)c65)cc4C3)C2)C1 (stereo not shown) = < 1000 nM

EC50 measured on `O=C(O)CN1CC2(Cc3ccc(OCc4ccccc4C(F)(F)F)cc3C2)C1` = < 1000 nM

EC50 measured on `O=C(O)C1(CN2CC3(Cc4ccc(OCc5ccccc5Cl)cc4C3)C2)CC1` = < 1000 nM
